These measurements were taken from ChEMBL document CHEMBL4257585.

HC50 at 0.5 h reference
Assay Explanation: Hemolytic activity against human RBC assessed as hemolysis after 30 mins by colorimetric method
Type: ADME, cell-based, Erythrocyte
Applied Conditions: human red blood cells (erythrocytes)

Smiles Structure	HC50 at 0.5 h / µM
Cc1sc2cc1C1=C(CCC1)c1cc(sc1C)C(=O)[C@H]1CCCN1C(=O)[C@H](Cc1ccc(O)cc1)NC(=O)[C@H](CCCN)NC(=O)[C@H](C(C)C)NC(=O)[C@@H]1CCCN1C(=O)[C@@H](Cc1ccccc1)NC(=O)[C@H](Cc1ccc(O)cc1)NC(=O)[C@H](CCCN)NC(=O)[C@H](C(C)C)NC2=O	4
Cc1sc2cc1C1=C(CCC1)c1cc(sc1C)C(=O)[C@H]1CCCN1C(=O)[C@H](C(C)C)NC(=O)[C@H](CCCN)NC(=O)[C@H](C(C)C)NC(=O)[C@@H]1CCCN1C(=O)[C@@H](Cc1ccccc1)NC(=O)[C@H](C(C)C)NC(=O)[C@H](CCCN)NC(=O)[C@H](CCNC(=O)C(C)C)NC2=O	170

---

Attribute: log10(HC50 at 0.5 h)
Assay Explanation: Hemolytic activity against human RBC assessed as hemolysis after 30 mins by colorimetric method
Assay type: ADME, cell-based, Erythrocyte
Applied Conditions: human red blood cells (erythrocytes)
Quantity Name: log10(HC50 at 0.5 h) (log10 of the value in µM)

Smiles Structure	log10(HC50 at 0.5 h)
CC[C@H](C)[C@@H]1NC(=O)C2=CC3=C4CCCC4=C4C=C(S[C@]4(C)[C@@]3(C)S2)C(=O)[C@H]2CCCN2C(=O)[C@H]([C@@H](C)CC)NC(=O)[C@H](CCCN)NC(=O)[C@H](CC(C)C)NC(=O)[C@H](CC(C)C)N(C)C(=O)[C@@H](Cc2ccccc2)NC(=O)[C@H]([C@@H](C)CC)NC(=O)[C@H](CCCN)NC1=O	1.43
CC(C)C[C@@H]1NC(=O)C2=CC3=C4CCCC4=C4C=C(S[C@]4(C)[C@@]3(C)S2)C(=O)[C@H]2CCCN2C(=O)[C@H](C(C)C)NC(=O)[C@H](CCCCN)NC(=O)[C@H](CC(C)C)NC(=O)[C@H](CCCCN)NC(=O)[C@@H]2CCCN2C(=O)[C@@H](Cc2ccccc2)NC(=O)[C@H](CCCCN)NC(=O)[C@H](C(C)C)NC(=O)[C@H](CCCCN)NC1=O	1.91
Cc1sc2cc1C1=C(CCC1)c1cc(sc1C)C(=O)[C@H]1CCCN1C(=O)[C@H](CC(C)C)NC(=O)[C@H](CCCNC(=N)N)NC(=O)[C@H](C(C)C)NC(=O)[C@@H]1CCCN1C(=O)[C@@H](Cc1ccccc1)NC(=O)[C@H](CC(C)C)NC(=O)[C@H](CCCNC(=N)N)NC(=O)[C@H](C(C)C)NC2=O	0.30
CC(C)C[C@@H]1NC(=O)[C@H](CCCCN)NC(=O)[C@H](C(C)C)NC(=O)C2=CC3=C4CCCC4=C4C=C(S[C@]4(C)[C@@]3(C)S2)C(=O)[C@H]2CCCN2C(=O)[C@H](C(C)C)NC(=O)[C@H](CCCCN)NC(=O)[C@H](C(C)C)NC(=O)[C@H](CC(C)C)NC(=O)[C@@H](CCCCN)NC(=O)[C@@H]2CCCN2C(=O)[C@@H](Cc2ccccc2)NC(=O)[C@H](C(C)C)NC(=O)[C@H](CCCCN)NC1=O	1.15
Cc1sc2cc1C1=C(CCC1)c1cc(sc1C)C(=O)[C@H]1CCCN1C(=O)[C@H]([C@H](O)C(C)C)NC(=O)[C@H](CCCN)NC(=O)[C@H](C(C)C)NC(=O)[C@@H]1CCCN1C(=O)[C@@H](Cc1ccccc1)NC(=O)[C@H](C(C)C)NC(=O)[C@H](CCCN)NC(=O)[C@H](C(C)C)NC2=O	1.59
